- Tested on: XIP peptide (Xip251-270) binding
- testDescription: XIP fragment 251-270 binding compounds – biochemical, small-molecule microarray, fluorescence 635/667 nm, 0.1 µg/mL protein, primary screen (AID 1182)
- conditionParameters: fluorescent protein binding, 635 nm, higher = more signal, called active from +8 up or from −8 down
Label Fulfilled when composite z-score >= 0.3; otherwise Not fulfilled.

compound | labelValue
COc1ccc([Si](C)(C)[C@H]2[C@H](CC(=O)N3CCC[C@H]3CO)O[C@@]3(C(=O)N(Cc4ccc(N5CCCCC5=O)cc4)c4ccccc43)[C@@H]2C)cc1 | Not fulfilled
COC(=O)[C@@]1(Cc2ccccc2)[C@H]2c3cc(C(=O)N(C)C)n(Cc4ccc(C(F)(F)F)nc4)c3C[C@H]2CN1C(=O)c1ccccc1 | Not fulfilled
C[N+](C)(C)CCCCNC(=O)[C@H]1C[C@H]2C(=O)N[C@@H](Cc3ccccc3)C(=O)N2[C@H]1c1cccc(OCCO)c1 | Fulfilled
CCOC(=O)C[C@H]1[C@H](OC(=O)Cc2ccc3c(c2)OCO3)[C@@H](NC(=O)c2ccc3ccccc3n2)c2cc(OCCCO)ccc2N1C(=O)Cc1ccc(OC)cc1 | Fulfilled

Task: composite z-score >= 0.3 for [N-]=[N+]=NCc1ccccc1[C@@H]1OC(c2ccc(OCCCO)cc2)=N[C@]1(Cc1ccccc1N=[N+]=[N-])C(=O)O ?
Result: Fulfilled

Task: hey, is composite z-score for this one >= 0.3? O=C1O[C@@H](c2ccccc2)[C@@H](c2ccccc2)N2[C@@H](c3ccc(OCCO)cc3)[C@]3(C(=O)Nc4ccc(C#CC5(O)CCCCCC5)cc43)[C@@H](C(=O)Nc3nc4ccccc4s3)[C@H]12
Result: Fulfilled
